Origin of the recorded values: ChEMBL document CHEMBL4406869

- Protocol summary: Cytotoxicity against mouse L929 cells assessed as cell viability at 100 ug/ml after 24 hrs by MTT assay relative to control
- Format: cell-based
- Recorded conditions: read-out: Activity

{"Smiles entry": "C(=N\\Nc1nc(C23CC4CC(CC(C4)C2)C3)cs1)/c1cc2ccccc2s1", "viability at 24 h, 100 ug/ml": "89%"}

* * *

- Protocol summary: Cytotoxicity against mouse L929 cells assessed as cell viability at 6.25 ug/ml after 24 hrs by MTT assay relative to control
- Assay type: cell-based
- Recorded conditions: read-out: Activity

{"Smiles entry": "C(=N\\Nc1nc(C23CC4CC(CC(C4)C2)C3)cs1)/c1cc2ccccc2s1", "viability at 24 h, 6.25 ug/ml (%)": 101}

* * *

- Test system: Toxoplasma gondii
- Protocol summary: Antiparasitic activity against Toxoplasma gondii ME49 tachyzoites infected in human Hs27 cells assessed as inhibition of parasitic growth preincubated for 24 hrs followed by [5,6-3H]uracil addition and measured after 72 hrs by liquid scintillation counting analysis
- Assay type: functional, organism-based
pIC50: −log10 of the molar value.
Readout label: pIC50

{"Smiles entry": "C(=N\\Nc1nc(C23CC4CC(CC(C4)C2)C3)cs1)/c1cc2ccccc2s1", "Reported value": 5.06}
{"Smiles entry": "Nc1ccc(S(=O)(=O)Nc2ncccn2)cc1", "Reported value": 1.89}
{"Smiles entry": "COc1cc(Cc2cnc(N)nc2N)cc(OC)c1OC", "Reported value": 4.41}
